# Assayed system: T1, recombinant purified human Nectin-4-Fc fusion protein (human, UniProt Q96NY8 32-349)
# T1 construct: Bought ('Aero Biosystems' as printed); not shown: Fc part of the bought fusion protein; captured by anti-human IgG Fc sensors
# T1 sequence: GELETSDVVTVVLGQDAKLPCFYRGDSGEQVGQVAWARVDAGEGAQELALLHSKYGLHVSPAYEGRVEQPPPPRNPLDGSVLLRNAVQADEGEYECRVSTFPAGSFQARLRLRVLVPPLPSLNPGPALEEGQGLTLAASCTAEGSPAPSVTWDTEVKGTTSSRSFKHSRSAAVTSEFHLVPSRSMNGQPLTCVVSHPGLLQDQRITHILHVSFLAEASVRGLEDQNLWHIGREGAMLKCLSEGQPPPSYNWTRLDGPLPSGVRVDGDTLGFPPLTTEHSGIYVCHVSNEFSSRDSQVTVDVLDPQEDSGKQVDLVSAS
# Method description: BLI (Octet), Nectin-4-Fc on anti-human Fc sensors, run 2
Exercise: state measured Kd for each of the binders provided.
Enter your answer as a number in nM; do not include the unit.

Request: Look at this binder and give its reported Kd. LV1184xVδ2 (bispecific antibody, Orientation N-term-anti-Nectin-4 VHH-linker-anti-Vδ2 VHH (5C8); no Fc; also called Nectin-4xVδ2 bispecific VHH) EVQLVESGGGLVQAGGSLRLSCAASGSISSINLMGWFRQAPAKQRELVTSISPGGSVRYADSVKGRFTISRDVAKNTVDLQMNSLKPEDTAVYYCAAESERTYYFDSWGQGTQVTVSSGGGGSEVQLVESGGGLVQAGGSLRLSCAASGRPFSNYAMGWFRQAPGKEREFVAAISWSGGSTSYADSVKGRFTISRDNAKNTVYLQMNSPKPEDTAIYYCAAQFSGADYGFGRLGIRGYEYDYWGQGTQVTVSS
Response: 0.18

Request: Queued: LV1186xVδ2 (bispecific antibody, Orientation N-term-anti-Nectin-4 VHH-linker-anti-Vδ2 VHH (5C8); no Fc; also called Nectin-4xVδ2 bispecific VHH) EVQLVESGGGLVQAGGSLRLSCAASRSTFSLNIMGWYRQAPGKQREYVATITSGGSTNYADSVRGRFTISRDNAENTVYLQMDSLKPEDTAVYYCTAELVRRGPTTYWGRGTQVTVSSGGGGSEVQLVESGGGLVQAGGSLRLSCAASGRPFSNYAMGWFRQAPGKEREFVAAISWSGGSTSYADSVKGRFTISRDNAKNTVYLQMNSPKPEDTAIYYCAAQFSGADYGFGRLGIRGYEYDYWGQGTQVTVSS
Response: 2.6

Request: Try LV1185xVδ2 (bispecific antibody, Orientation N-term-anti-Nectin-4 VHH-linker-anti-Vδ2 VHH (5C8); no Fc; also called Nectin-4xVδ2 bispecific VHH) EVQLVESGGGLVQAGGSLRLSCAASRSTFSLNIMGWYRQAPGKQREYVATITTGGSTNYADSVRGRFTISRDNAEDTVYLQMNSLKPEDTAVYYCTAELVRRGPTTYWGRGTQVTVSSGGGGSEVQLVESGGGLVQAGGSLRLSCAASGRPFSNYAMGWFRQAPGKEREFVAAISWSGGSTSYADSVKGRFTISRDNAKNTVYLQMNSPKPEDTAIYYCAAQFSGADYGFGRLGIRGYEYDYWGQGTQVTVSS next.
Response: 2.4

Request: Entry to check: LV1181xVδ2 (bispecific antibody, Orientation N-term-anti-Nectin-4 VHH-linker-anti-Vδ2 VHH (5C8); no Fc; also called Nectin-4xVδ2 bispecific VHH) EVQLVESGGGLVQAGGSLRLSCAASGSISSINLMGWHRQAPGKQRELVATITRGGSTNYADSVKGRFTISRDNGKNTVYLQMNSLKPEDTAAYYCVDVEPSGMGWRDYWGQGTQVTVSSGGGGSEVQLVESGGGLVQAGGSLRLSCAASGRPFSNYAMGWFRQAPGKEREFVAAISWSGGSTSYADSVKGRFTISRDNAKNTVYLQMNSPKPEDTAIYYCAAQFSGADYGFGRLGIRGYEYDYWGQGTQVTVSS
Response: 0.37
